This section presents molecules with their documented Emax values.
# subject_of_test: BRAF^V600E protein (Homo sapiens, UniProt P15056, V600E)
# Sequence (P15056 whole entry V600E): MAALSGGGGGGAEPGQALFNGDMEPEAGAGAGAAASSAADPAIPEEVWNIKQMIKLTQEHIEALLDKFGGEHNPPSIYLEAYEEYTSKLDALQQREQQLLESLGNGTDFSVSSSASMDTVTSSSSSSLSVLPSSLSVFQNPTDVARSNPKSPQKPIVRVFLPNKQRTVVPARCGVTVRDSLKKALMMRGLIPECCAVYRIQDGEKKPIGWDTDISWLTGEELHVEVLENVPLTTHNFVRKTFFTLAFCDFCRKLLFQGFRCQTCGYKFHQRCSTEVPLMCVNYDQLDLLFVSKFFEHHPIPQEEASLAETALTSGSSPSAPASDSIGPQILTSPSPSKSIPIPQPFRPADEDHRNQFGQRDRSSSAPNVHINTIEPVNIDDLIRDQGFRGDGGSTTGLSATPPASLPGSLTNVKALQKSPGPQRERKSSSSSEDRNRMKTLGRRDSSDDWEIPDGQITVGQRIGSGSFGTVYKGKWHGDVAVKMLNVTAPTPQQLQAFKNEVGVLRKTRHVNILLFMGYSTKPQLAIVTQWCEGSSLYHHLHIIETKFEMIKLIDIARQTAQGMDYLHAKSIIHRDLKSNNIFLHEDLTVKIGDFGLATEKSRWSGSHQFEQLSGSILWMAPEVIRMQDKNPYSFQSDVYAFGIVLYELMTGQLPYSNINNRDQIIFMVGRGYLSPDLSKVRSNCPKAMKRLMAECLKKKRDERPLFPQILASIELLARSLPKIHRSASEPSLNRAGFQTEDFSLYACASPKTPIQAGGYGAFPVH
# assay_explanation: HiBiT cellular BRAF V600E degradation assay
# Type: cell-based
# applied_conditions: A375.10 cells, 24 h incubation; Emax = amount of residual protein remaining in the cell after compound treatment; read-out: HiBit 24 h Emax
Respond with the figure and its unit, in that order.

INSERT INTO measurements (molecule, value_kind, value) VALUES
  ('CCN(C)S(=O)(=O)Nc1ccc(F)c(C(=O)c2c[nH]c3ncc(-c4ccc(C5CCN(C(=O)CN6CCC(c7ccc(NC8CCC(=O)NC8=O)cc7)CC6)CC5)nc4)cc23)c1F (centres unmarked) [Example A49]', 'Emax', '11%'),
  ('CCN(C)S(=O)(=O)Nc1ccc(F)c(C(=O)c2c[nH]c3ncc(-c4cnc(N5CCN(C(=O)CCCN6CCC(c7ccc(NC8CCC(=O)NC8=O)cc7)CC6)CC5)nc4)cc23)c1F (centres unmarked) [Example A18]', 'Emax', '15%'),
  ('CCN(C)S(=O)(=O)Nc1ccc(F)c(C(=O)c2c[nH]c3ncc(-c4cnc(N5CCN(C(=O)CC6(O)CCN(c7ccc(N8CCC(=O)NC8=O)cc7F)CC6)CC5)nc4)cc23)c1F [Example 167]', 'Emax', '9.37%'),
  ('CCN(C)S(=O)(=O)Nc1ccc(F)c(C(=O)c2c[nH]c3ncc(-c4ccc(N5CCN(C(=O)CC6(O)CCN(c7ccc(N8CCC(=O)NC8=O)cc7F)CC6)CC5)cc4)cc23)c1F [Example 169]', 'Emax', '7.34%'),
  ('CCN(C)S(=O)(=O)Nc1ccc(F)c(C(=O)c2c[nH]c3ncc(-c4cnc(N5CCN(C(=O)CN6CCC(c7ccc(NC8CCC(=O)NC8=O)cn7)CC6)CC5)nc4)cc23)c1F (centres unmarked) [Example 21]', 'Emax', '11.9%'),
  ('CCN(C)S(=O)(=O)Nc1ccc(F)c(C(=O)c2c[nH]c3ncc(-c4cnc(N5CCN(C(=O)CN6CCN(c7ccc(NC8CCC(=O)NC8=O)cc7)CC6)CC5)nc4)cc23)c1F (centres unmarked) [Example A16]', 'Emax', '11%');

Please find the next molecule below.
So what does the record say about Emax for CCN(C)S(=O)(=O)Nc1cccc(C(=O)c2c[nH]c3ncc(-c4ccc(N5CCN(C(=O)CC6(O)CCN(c7ccc(NC8CCC(=O)NC8=O)cc7Cl)CC6)CC5)nc4)cc23)c1F (centres unmarked) [Example 156] ?
9.35%

----------
This section presents compounds with their documented Emax values.
# subject_of_test: BRAF^V600E protein (Homo sapiens, UniProt P15056, V600E)
# assay_explanation: HiBiT cellular BRAF V600E degradation assay
# Type: cell-based
# applied_conditions: A375.10 cells, 24 h incubation; Emax = amount of residual protein remaining in the cell after compound treatment; read-out: HiBit 24 h Emax
I only need the number, in %, no unit after it.

Solved entries (count: 2):
INSERT INTO assay_data (compound, value) VALUES
  ('CCN(C)S(=O)(=O)Nc1ccc(F)c(C(=O)c2c[nH]c3ncc(-c4cnc(N5CCN(C(=O)CN6CCC(c7ccc(NC8CCC(=O)NC8=O)cc7F)CC6)CC5)nc4)cc23)c1F (stereo not drawn)', 9.71),
  ('CCN(C)S(=O)(=O)Nc1ccc(F)c(C(=O)c2c[nH]c3ncc(-c4cnc(N5CCC(O)(CCN6CCC(c7ccc(NC8CCC(=O)NC8=O)cc7)CC6)CC5)nc4)cc23)c1F (stereo not drawn)', 10.6);

Please find the next compound below.
So what does the record say about Emax for O=C1CCC(Nc2ccc(N3CCC(O)(CC(=O)N4CCN(c5ccc(-c6cnc7[nH]cc(C(=O)c8c(F)ccc(NS(=O)(=O)N9CC[C@@H](F)C9)c8F)c7c6)cn5)CC4)CC3)c(F)c2)C(=O)N1 (stereo partly drawn) ?
7.07
